// provenance: patent US20230414509A1

System: U266B1 cells (myeloma)
protocol-summary: Cytotoxicity IC50, MTS assay, U266B1 cells
Type: cell-based
test-conditions: U266B1 cells (SR-B1 negative), 72 hours after treatment, read-out: IC-50 values (in nM), U266B1
readout-label: IC50 (nM)
The answer is to be given in nM; state only the numeric part.

-- ask Give reported IC50 value for `Cc1ccc([N+](=O)[O-])cc1S(=O)(=O)N(C)/N=C/c1cnc2ccc(Br)cn12.Cl`
-- reply 44.1

---

Tested on: HuT78 cells (cutaneous T cell lymphoma)
protocol-summary: Cytotoxicity IC50, MTS assay, HuT78 cells
Type: cell-based
test-conditions: Homo sapiens, 72 hours after treatment, read-out: IC-50 values (in nM), HuT78
readout-label: IC50

-- ask Specify IC50 for `Cc1ccc([N+](=O)[O-])cc1S(=O)(=O)N(C)/N=C/c1cnc2ccc(Br)cn12.Cl` and stop.
-- reply 45.6 nM
